Test system: T47D_NF1KD
test.name: growth inhibition, 3 days
Assay type: cell-based
test.context: without estrogen, read-out: IC50 (nmol/L) E2 (−)
experimental.endpoint: IC50 (nmol/L)
Record the value in nmol/L, omitting the unit from your answer.

Which value of IC50 has been reported for CC(C)(C)NCCNc1ccc(-c2nnc(C(F)(F)F)o2)nc1C1CCN(c2ncnc3c2C(C)(C)C(=O)N3)CC1 [Compound (1)] in the records?
111

---

Below, each entry is listed alongside its reported pIC50.
System: SW1573
test.name: 3-day growth inhibition assay
Assay type: cell-based
test.context: Homo sapiens; SW1573 (NSCLC), KRAS p.G12C, PIK3CA p.K111E; read-out: Growth inhibition (IC50: nmol/L)
pIC50: −log10 of the molar value.

Examples from the recorded data:
CC(C)(C)NCCNc1ccc(-c2nnc(C(F)(F)F)o2)nc1C1CCN(c2ncnc3c2C(C)(C)C(=O)N3)CC1 :: 6.86
C=CC(=O)N1CCN(c2nc(=O)n(-c3c(C)ccnc3C(C)C)c3nc(-c4c(O)cccc4F)c(F)cc23)[C@@H](C)C1 [AMG510, sotorasib, reference compound] :: < 5.00

Now for a further molecule.
Which value of pIC50 has been reported for `CC(=O)Nc1cccc(-n2c(=O)n(C3CC3)c(=O)c3c(Nc4ccc(I)cc4F)n(C)c(=O)c(C)c32)c1` in the records?
< 5.00
